measured_parameter: melting point (°C)
Answers are plain numbers, in °C.

Example results:
> print(dat)
                                   compound  unit.annotation  recorded.number
1  CC(C)(C)n1c(=O)n(Cc2nc3cc(Cl)ccc3n2CCCS(C)(=O)=O)c2cnccc21 [Compound P2]               °C              197
2  COc1ccc(-n2c(=O)n(Cc3nc4cc(Cl)ccc4n3CCCCF)c3cnccc32)cc1               °C              167

Look at each compound and report its melting point.
1. O=c1n(Cc2nc3cc(Cl)ccc3n2CCCCF)c2cnccc2n1-c1ccc(F)nc1
2. O=c1n(Cc2nc3cc(Cl)ccc3n2CCCCF)c2cnccc2n1-c1ccc(F)cc1
3. O=c1n(Cc2nc3cc(Cl)ccc3n2CCCCF)c2cnccc2n1-c1ccc2ncccc2c1
4. COc1ccc(-n2c(=O)n(Cc3nc4cc(Cl)ccc4n3CCCS(C)(=O)=O)c3cnccc32)cc1
5. O=c1n(Cc2nc3cc(Cl)ccc3n2CCCCF)c2cnccc2n1-c1nccs1

1. 208
2. 180
3. 231
4. 250
5. 206

The measurements presented in this section are drawn from patent US20150166533A1.
